Each entry below carries its reported kinase still bound, per cent of control.
# Target of assay: SLK (human)
# Test: KINOMEscan competition binding
# Experimental setup: compound 10.0 µM
Endpoint name: kinase still bound, per cent of control (%)

{"columns": ["Chemical string", "Target of assay", "Readout unit", "Obs value"],
 "data": [
  ["CNC(=O)c1cc(Oc2ccc(NC(=O)Nc3ccc(Cl)c(C(F)(F)F)c3)cc2)ccn1", "SLK (human)", "%", 15],
  ["C=CC(=O)Nc1cc(-n2c(=O)ccc3cnc4ccc(-c5cn[nH]c5)cc4c32)ccc1C", "SLK (human)", "%", 100],
  ["C=CC(=O)Nc1ccc(CN(C(=O)Nc2c(Cl)c(OC)cc(OC)c2Cl)c2cc(Nc3ccc(N4CCN(C)CC4)cc3)ncn2)cc1", "SLK (human)", "%", 9.8],
  ["NC(=O)Nc1cc(-c2cccc(F)c2)sc1C(=O)N[C@@H]1CCCNC1", "SLK (human)", "%", 0.05],
  ["N#CCNC(=O)c1ccc(-c2ccnc(Nc3ccc(N4CCOCC4)cc3)n2)cc1", "SLK (human)", "%", 100],
  ["CCN(CC)CCCCNc1ncc2c(n1)N(C)C(=O)N(c1c(Cl)c(OC)cc(OC)c1Cl)C2", "SLK (human)", "%", 100],
  ["COc1cc2ncn(-c3cc(OCc4ccccc4C(F)(F)F)c(C(N)=O)s3)c2cc1OC", "SLK (human)", "%", 0.25],
  ["CN(C)C/C=C/C(=O)Nc1ccc(C(=O)Nc2cccc(Nc3nccc(-c4cccnc4)n3)c2)cc1", "SLK (human)", "%", 98],
  ["O=C(Nc1cccc(Nc2ncc(Br)c(NCCc3cnc[nH]3)n2)c1)N1CCCC1", "SLK (human)", "%", 0.35]
]}
